Data origin, for the record: patent US20230210831A1

For each entry below, report its Number of revertant colonies WP2uvrA value.
system: Escherichia coli WP2uvrA; experiment: Ames test (reverse mutation test), WP2uvrA; format: cell-based; conditions: S9 Mix +; dose 5000 µg/plate
Could you respond with only the numeric value?

Identify measured Number of revertant colonies WP2uvrA associated with Cc1ccc(-n2nc(N)cc2-c2cccc(OCC(F)(F)F)c2)cc1 [Metabolite F]
6

Identify measured Number of revertant colonies WP2uvrA associated with Nc1cc(-c2cccc(OCC(F)(F)F)c2)n(-c2ccc(F)cc2)n1 [Metabolite E]
12

Identify measured Number of revertant colonies WP2uvrA associated with Cc1cccc(-n2nc(N)cc2-c2cccc(OC(F)(F)F)c2)c1 [Metabolite H]
9

Identify measured Number of revertant colonies WP2uvrA associated with Nc1cc(-c2cccc(OC(F)(F)F)c2)n(-c2cccc(F)c2)n1 [Metabolite G]
14

====

tested on: Salmonella typhimurium TA1537; assay: Ames test (reverse mutation test), TA1537; assay type: cell-based; conditions: S9 Mix -; dose 21 µg/plate
recorded endpoint: Number of revertant colonies TA1537
Could you respond with only the numeric value?

Identify measured Number of revertant colonies TA1537 associated with Cc1ccc(-n2nc(N)cc2-c2cccc(OCC(F)(F)F)c2)cc1 [Metabolite F]
16

Identify measured Number of revertant colonies TA1537 associated with Cc1cccc(-n2nc(N)cc2-c2cccc(OC(F)(F)F)c2)c1 [Metabolite H]
11

Identify measured Number of revertant colonies TA1537 associated with Nc1cc(-c2cccc(OC(F)(F)F)c2)n(-c2cccc(F)c2)n1 [Metabolite G]
17

Identify measured Number of revertant colonies TA1537 associated with Nc1cc(-c2cccc(OCC(F)(F)F)c2)n(-c2ccc(F)cc2)n1 [Metabolite E]
16

Identify measured Number of revertant colonies TA1537 associated with CC(C)(OCc1cc(F)cc(-c2cc(N)nn2-c2ccc(F)cc2)c1)C(F)(F)F [Metabolite D]
11

====

For each entry below, report its Number of revertant colonies WP2uvrA value.
tested on: Escherichia coli WP2uvrA; test: Ames test (reverse mutation test), WP2uvrA; format: cell-based; settings: S9 Mix +; dose 21 µg/plate

Identify measured Number of revertant colonies WP2uvrA associated with Cc1ccc(-n2nc(N)cc2-c2cccc(OCC(F)(F)F)c2)cc1 [Metabolite F]
30

Identify measured Number of revertant colonies WP2uvrA associated with Cc1cccc(-n2nc(N)cc2-c2cccc(OC(F)(F)F)c2)c1 [Metabolite H]
25

Identify measured Number of revertant colonies WP2uvrA associated with Nc1cc(-c2cccc(OCC(F)(F)F)c2)n(-c2ccc(F)cc2)n1 [Metabolite E]
24

Identify measured Number of revertant colonies WP2uvrA associated with Nc1cc(-c2cccc(OC(F)(F)F)c2)n(-c2cccc(F)c2)n1 [Metabolite G]
22

====

tested on: Escherichia coli WP2uvrA; assay: Ames test (reverse mutation test), WP2uvrA; type: cell-based; conditions: WP2uvrA, +S9 mix, 5000 µg/plate
recorded endpoint: Number of revertant colonies
Could you respond with only the numeric value?

Identify measured Number of revertant colonies associated with CC(C)(C)Oc1cccc(-c2cc(N)nn2-c2ccccc2)c1 [Metabolite C]
16

Identify measured Number of revertant colonies associated with Nc1cc(-c2cc(F)cc(OC(F)(F)F)c2)n(-c2cncc(C(F)(F)F)c2)n1 [Metabolite 5]
19

Identify measured Number of revertant colonies associated with CC(C)(C)Oc1cc(F)cc(-c2cc(N)nn2C(F)(F)F)c1 [Metabolite 1]
0

Identify measured Number of revertant colonies associated with CC(C)(OCc1cc(F)cc(-c2cc(N)nn2-c2ccc(F)cc2)c1)C(F)(F)F [Metabolite D]
28

====

Test system: Salmonella typhimurium TA1537
Test: Ames test (reverse mutation test), TA1537
Format: cell-based
Settings: TA1537, +S9 mix, 185 µg/plate
Protocol: The solvent used herein was dimethyl sulfoxide (DMSO, 100 µL/plate). The mixtures were preincubated at 37° C. for 20 minutes while shaking. […] Two plates per treatment were used.
recorded endpoint: Number of revertant colonies
Could you respond with only the numeric value?

// fetch Number of revertant colonies for Nc1cc(-c2cc(F)cc(OC(F)(F)F)c2)n(-c2cncc(C(F)(F)F)c2)n1 [Metabolite 5] ; system: Salmonella typhimurium TA1537
12

// fetch Number of revertant colonies for CC(C)(C)Oc1cccc(-c2cc(N)nn2-c2ccccc2)c1 [Metabolite C] ; system: Salmonella typhimurium TA1537
9

// fetch Number of revertant colonies for CC(C)(OCc1cc(F)cc(-c2cc(N)nn2-c2ccc(F)cc2)c1)C(F)(F)F [Metabolite D] ; system: Salmonella typhimurium TA1537
15

// fetch Number of revertant colonies for CC(C)(C)Oc1cc(F)cc(-c2cc(N)nn2C(F)(F)F)c1 [Metabolite 1] ; system: Salmonella typhimurium TA1537
2

====

test system: Salmonella typhimurium TA1537; assay: Ames test (reverse mutation test), TA1537; type: cell-based; conditions: S9 Mix -; dose 1667 µg/plate
recorded endpoint: Number of revertant colonies TA1537
Could you respond with only the numeric value?

Identify measured Number of revertant colonies TA1537 associated with CC(C)(OCc1cc(F)cc(-c2cc(N)nn2-c2ccc(F)cc2)c1)C(F)(F)F [Metabolite D]
6

Identify measured Number of revertant colonies TA1537 associated with Cc1cccc(-n2nc(N)cc2-c2cccc(OC(F)(F)F)c2)c1 [Metabolite H]
5

Identify measured Number of revertant colonies TA1537 associated with Nc1cc(-c2cccc(OCC(F)(F)F)c2)n(-c2ccc(F)cc2)n1 [Metabolite E]
0

Identify measured Number of revertant colonies TA1537 associated with Nc1cc(-c2cccc(OC(F)(F)F)c2)n(-c2cccc(F)c2)n1 [Metabolite G]
0

Identify measured Number of revertant colonies TA1537 associated with Cc1ccc(-n2nc(N)cc2-c2cccc(OCC(F)(F)F)c2)cc1 [Metabolite F]
0

====

test system: Salmonella typhimurium TA1535; test: Ames test (reverse mutation test), TA1535; format: cell-based; details: S9 Mix +; dose 1667 µg/plate
For each entry below, report its Number of revertant colonies TA1535 value.

Identify measured Number of revertant colonies TA1535 associated with Cc1cccc(-n2nc(N)cc2-c2cccc(OC(F)(F)F)c2)c1 [Metabolite H]
3

Identify measured Number of revertant colonies TA1535 associated with Nc1cc(-c2cccc(OC(F)(F)F)c2)n(-c2cccc(F)c2)n1 [Metabolite G]
4

Identify measured Number of revertant colonies TA1535 associated with Cc1ccc(-n2nc(N)cc2-c2cccc(OCC(F)(F)F)c2)cc1 [Metabolite F]
0

Identify measured Number of revertant colonies TA1535 associated with Nc1cc(-c2cccc(OCC(F)(F)F)c2)n(-c2ccc(F)cc2)n1 [Metabolite E]
0

====

system: Salmonella typhimurium TA100; assay: Ames test (reverse mutation test), TA100; format: cell-based; settings: S9 Mix +; dose 1667 µg/plate
recorded endpoint: Number of revertant colonies TA100
Could you respond with only the numeric value?

Identify measured Number of revertant colonies TA100 associated with Nc1cc(-c2cccc(OCC(F)(F)F)c2)n(-c2ccc(F)cc2)n1 [Metabolite E]
182

Identify measured Number of revertant colonies TA100 associated with Cc1cccc(-n2nc(N)cc2-c2cccc(OC(F)(F)F)c2)c1 [Metabolite H]
242

Identify measured Number of revertant colonies TA100 associated with Nc1cc(-c2cccc(OC(F)(F)F)c2)n(-c2cccc(F)c2)n1 [Metabolite G]
94

Identify measured Number of revertant colonies TA100 associated with Cc1ccc(-n2nc(N)cc2-c2cccc(OCC(F)(F)F)c2)cc1 [Metabolite F]
1576

====

test system: Salmonella typhimurium TA1537; test: Ames test (reverse mutation test), TA1537; assay type: cell-based; conditions: S9 Mix -; dose 6.9 µg/plate
recorded endpoint: Number of revertant colonies TA1537
Could you respond with only the numeric value?

Identify measured Number of revertant colonies TA1537 associated with Cc1ccc(-n2nc(N)cc2-c2cccc(OCC(F)(F)F)c2)cc1 [Metabolite F]
16

Identify measured Number of revertant colonies TA1537 associated with Cc1cccc(-n2nc(N)cc2-c2cccc(OC(F)(F)F)c2)c1 [Metabolite H]
9

Identify measured Number of revertant colonies TA1537 associated with Nc1cc(-c2cccc(OC(F)(F)F)c2)n(-c2cccc(F)c2)n1 [Metabolite G]
15

Identify measured Number of revertant colonies TA1537 associated with CC(C)(OCc1cc(F)cc(-c2cc(N)nn2-c2ccc(F)cc2)c1)C(F)(F)F [Metabolite D]
13

Identify measured Number of revertant colonies TA1537 associated with Nc1cc(-c2cccc(OCC(F)(F)F)c2)n(-c2ccc(F)cc2)n1 [Metabolite E]
20

====

test system: Salmonella typhimurium TA1537; experiment: Ames test (reverse mutation test), TA1537; format: cell-based; settings: S9 Mix -; dose 185 µg/plate
recorded endpoint: Number of revertant colonies TA1537
Could you respond with only the numeric value?

Identify measured Number of revertant colonies TA1537 associated with CC(C)(OCc1cc(F)cc(-c2cc(N)nn2-c2ccc(F)cc2)c1)C(F)(F)F [Metabolite D]
6

Identify measured Number of revertant colonies TA1537 associated with Cc1ccc(-n2nc(N)cc2-c2cccc(OCC(F)(F)F)c2)cc1 [Metabolite F]
3

Identify measured Number of revertant colonies TA1537 associated with Cc1cccc(-n2nc(N)cc2-c2cccc(OC(F)(F)F)c2)c1 [Metabolite H]
4

Identify measured Number of revertant colonies TA1537 associated with Nc1cc(-c2cccc(OC(F)(F)F)c2)n(-c2cccc(F)c2)n1 [Metabolite G]
0

Identify measured Number of revertant colonies TA1537 associated with Nc1cc(-c2cccc(OCC(F)(F)F)c2)n(-c2ccc(F)cc2)n1 [Metabolite E]
3
